Each recorded value in this set is attributed to patent US20210388110A1.

Exercise: state measured SuRe binding (RU) for each of the binders provided.
target: Mab Select SuRe Ligand; test: SPR (Biacore T200), SuRe ligand on CM5 chip, antibody 5 ug/mL
Numbers only; they are read as RU.

## Input Which SuRe binding (RU) value is on record for TR01H100-E2702GsKsc/L0011-k0 (antibody, human IgG4 S228P, kappa, N297A, V domains shown) VH: QVQLVESGGGLVQPGRSLRLSCAASGFTFSNAWMHWVRQAPGKGLEWVAQIKDKSQNYASYYAESVKGRFTISRDDSKNSLYLQMNSLKTEDTAVYYCRYVHYAAGYGVDAWGQGTTVTVSS VL: DIVMTQSPLSLPVTPGEPASISCRSSQPLVHSNRNTYLHWYQQKPGQAPRLLIYKVSNRFSGVPDRFSGSGSGTDFTLKISRVEAEDVGVYYCGQGTQVPYTFGQGTKLEIKR ?
## Output 383

## Input Which SuRe binding (RU) value is on record for TR01H114-E2702GsKsc/L0011-k0 (antibody, human IgG4 S228P, kappa, N297A, V domains shown) VH: QVQLVESGGGVVQPGGSLRLSCAASGFTFSNAWMHWVRQAPGKGLEWVAQIKDKSQNYASYYAESVKGRFTISRADSKNSIYLQMNSLKTEDTAVYYCRYVHYAAGYGVDIWGQGTTVTVSS VL: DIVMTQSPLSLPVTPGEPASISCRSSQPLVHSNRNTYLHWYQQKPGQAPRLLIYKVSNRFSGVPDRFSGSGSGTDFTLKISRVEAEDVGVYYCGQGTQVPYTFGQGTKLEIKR ?
## Output 1490

## Input Which SuRe binding (RU) value is on record for TR01H104-E2702GsKsc/L0011-k0 (antibody, human IgG4 S228P, kappa, N297A, V domains shown) VH: QVQLVESGGGLVQPGRSLRLSCAASGFTFSNAWMHWVRQAPGKGLEWVAQIKDKSQNYATYIAESVKGRFTISRDDSKNSLYLQMNSLKTEDTAVYYCRYVHYAAGYGVDAWGQGTTVTVSS VL: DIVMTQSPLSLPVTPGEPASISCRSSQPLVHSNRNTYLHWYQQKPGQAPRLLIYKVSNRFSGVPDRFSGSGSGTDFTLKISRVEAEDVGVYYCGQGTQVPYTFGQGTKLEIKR ?
## Output 1

## Input Which SuRe binding (RU) value is on record for TR01H097-E2702GsKsc/L0011-k0 (antibody, human IgG4 S228P, kappa, N297A, V domains shown) VH: QVQLVESGGGLVQPGRSLRLSCAASGFTFSNAWMHWVRQAPGKGLEWVAQIKDKSQNYALYYAESVKGRFTISRDDSKNSLYLQMNSLKTEDTAVYYCRYVHYAAGYGVDAWGQGTTVTVSS VL: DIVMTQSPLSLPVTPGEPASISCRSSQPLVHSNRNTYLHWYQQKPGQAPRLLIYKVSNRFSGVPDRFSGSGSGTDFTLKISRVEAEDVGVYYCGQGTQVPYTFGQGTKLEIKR ?
## Output 0.1

## Input Which SuRe binding (RU) value is on record for TR01H098-E2702GsKsc/L0011-k0 (antibody, human IgG4 S228P, kappa, N297A, V domains shown) VH: QVQLVESGGGLVQPGRSLRLSCAASGFTFSNAWMHWVRQAPGKGLEWVAQIKDKSQNYAPYYAESVKGRFTISRDDSKNSLYLQMNSLKTEDTAVYYCRYVHYAAGYGVDAWGQGTTVTVSS VL: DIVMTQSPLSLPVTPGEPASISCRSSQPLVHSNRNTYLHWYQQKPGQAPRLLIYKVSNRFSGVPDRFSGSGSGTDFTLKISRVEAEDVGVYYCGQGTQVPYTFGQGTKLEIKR ?
## Output 1.6
